# Tested on: SW-620 colon
# Procedure Summary: NCI tumour cell line growth inhibition, 48 h
Entries and their GI50

Illustrative cases are given below, each with its answer.
Compound | GI50
O=C(/C=C/c1ccc(Cl)cc1)c1ccc(Cl)c(Cl)c1 | 19.6 µM
C/C(=C1\SC(=NCc2cccs2)NC1=O)c1ccc2ncccc2c1 | 10.1 µM
COc1cccc2c1C(=O)c1c(O)c3c(c(O)c1C2=O)C[C@@](O)(C(C)=O)C[C@@H]3O[C@H]1C[C@H](N)[C@H](O)[C@H](C)O1 | 0.0355 µM

// switching to the query compound
Task item: Retrieve GI50 measured for COc1cc2c(/C=C3\C(=O)N(C)c4ccc(O)cc43)c[nH]c2cc1C and print it.
Reply: 3.83 µM

---

# Test system: OVCAR-3 ovarian
# Procedure Summary: NCI tumour cell line growth inhibition, 48 h
Recorded measurements of TGI, one per entry

A selection of reference data follows.
Compound | TGI
C=CCN1CN(C2CCCCC2)CSC1=S | 29.6 µM
COC(=O)CN1Cc2cc(C)cc(c2O)CN(CC(=O)OC)Cc2cc(C)cc(c2O)CN(CC(=O)OC)Cc2cc(C)cc(c2O)C1 | > 100 µM
Cc1nc(-c2nc(C)c(C(=O)/C=C/c3ccc([N+](=O)[O-])cc3)s2)sc1C(=O)/C=C/c1ccc([N+](=O)[O-])cc1 | > 100 µM

Task item: Provide OVCAR-3 ovarian TGI reading for COc1ccc2[nH]c3c(C)c4ccnc(NCCCN(C)CCCNc5ccc([N+](=O)[O-])c6[nH]c7ccccc7c(=O)c56)c4c(C)c3c2c1 .
Reply: 1.2 µM

Task item: Tell me TGI of COc1ccc(C2C(C#N)=C(O)NC(O)=C2C#N)cc1OC when tested on OVCAR-3 ovarian.
Reply: > 100 µM

Task item: # lookup: OVCAR-3 ovarian TGI, key = CN(C(=O)Nc1ccc(Cl)c(Cl)c1)C1CCCC[C@@H]1N1CCCC1 (some centres undefined)
Reply: > 100 µM

Task item: Using OVCAR-3 ovarian as the test system, report measured TGI of Cc1cc(C)nc(NS(=O)(=O)c2ccc(NC(=O)c3cccc4c(Nc5ccc(S(=O)(=O)Nc6nc(C)cc(C)n6)cc5)c5ccc(Cl)cc5nc34)cc2)n1 .
Reply: 58.3 µM

Task item: Specify TGI for CN=c1ss/c(=N\C(=S)N(C)C)n1-c1ccccc1 , system OVCAR-3 ovarian.
Reply: > 100 µM

Task item: State, for OVCAR-3 ovarian, measured TGI of the compound listed here: CC(C)C(N=c1c2ccccc2n(O)c2ccccc12)C(=O)O (centres undefined)
Reply: > 100 µM

---

# System: HS 578T breast
# Procedure Summary: NCI tumour cell line growth inhibition, 48 h
Catalogue of GI50 values

Below are worked cases with known answers.
Compound | Result
COc1cc(-c2cc(/C=C3\C(=O)Nc4cc(Cl)ccc43)[nH]n2)cc(OC)c1OC | 2.74 µM
Cc1ncc(C(=O)Nc2ccc(CN3CCN(C)CC3)c(C(F)(F)F)c2)cc1C#Cc1c(N)ncc2ccc(F)cc12 | 0.588 µM
CCn1c(-c2nonc2N)nc2c(C#CC(C)(C)O)nc(CN3CCCC3)cc21 | 7.39 µM
Clc1nc(Cl)c2ncn(C/C=C\COc3cccc(OC/C=C\Cn4cnc5c(Cl)nc(Cl)nc54)c3)c2n1 | > 100 µM

Task item: Would you please give the reported GI50 of Clc1ccc(Nc2nnc(CNc3ccccc3)c3ccccc23)cc1 with HS 578T breast?
Reply: 2.95 µM
